Biological target: rat mGlu2 (Rattus norvegicus)
Construct: expressed in transfected cells
Sequence (P31421 19-872): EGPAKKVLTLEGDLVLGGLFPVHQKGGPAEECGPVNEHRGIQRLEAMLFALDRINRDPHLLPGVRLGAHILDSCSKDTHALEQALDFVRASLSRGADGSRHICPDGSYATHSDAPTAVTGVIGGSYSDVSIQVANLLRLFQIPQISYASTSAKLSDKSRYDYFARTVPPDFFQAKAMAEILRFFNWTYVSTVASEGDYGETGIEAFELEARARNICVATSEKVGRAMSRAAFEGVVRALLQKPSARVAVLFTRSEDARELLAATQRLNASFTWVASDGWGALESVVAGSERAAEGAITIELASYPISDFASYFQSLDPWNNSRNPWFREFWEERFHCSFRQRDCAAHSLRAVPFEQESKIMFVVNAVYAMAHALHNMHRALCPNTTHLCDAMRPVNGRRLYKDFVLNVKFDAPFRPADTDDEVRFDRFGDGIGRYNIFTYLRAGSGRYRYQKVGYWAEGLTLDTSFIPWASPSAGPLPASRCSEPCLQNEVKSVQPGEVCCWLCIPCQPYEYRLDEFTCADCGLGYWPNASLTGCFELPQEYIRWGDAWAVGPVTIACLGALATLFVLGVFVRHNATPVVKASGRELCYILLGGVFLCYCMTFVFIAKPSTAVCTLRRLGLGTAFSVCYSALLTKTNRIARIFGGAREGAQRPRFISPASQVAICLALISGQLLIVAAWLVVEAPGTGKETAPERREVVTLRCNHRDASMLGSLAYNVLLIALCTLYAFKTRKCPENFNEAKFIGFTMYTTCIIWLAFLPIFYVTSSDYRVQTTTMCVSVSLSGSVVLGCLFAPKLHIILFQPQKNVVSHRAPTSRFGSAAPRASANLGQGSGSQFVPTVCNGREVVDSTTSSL
Experiment: mGlu2 Ca2+ flux assay
Type: cell-based
Details: Gα15 HEK293 cells stably expressing rat mGlu2; glutamate EC80 addition; read-out: rat mGlu2 IC50
Field: log10 IC50. Provide a value for each of the compounds that follow.
Values below are the log10 of the recorded IC50, with nM as the unit.

Example cases with answers are listed next.
So what's the measured log10 IC50 for this one? N#CC1CCN(Cc2ccc3c(c2)c(=O)c(C(N)=O)cn3-c2ccc(F)cc2)CC1 [Compound 75] 2.87

So what's the measured log10 IC50 for this one? NC(=O)c1cn(-c2ccc(F)cc2)c2ccc(CN3CCN(C4CC4)CC3)cc2c1=O [Compound 66] 3.11

So what's the measured log10 IC50 for this one? CN(c1ccncc1)c1ccc2c(c1)c(=O)c(C(N)=O)cn2-c1ccc(F)cc1 [Compound 18] 3.06

So what's the measured log10 IC50 for this one? NC(=O)c1cn(-c2ccc(F)cc2)c2ccc(N3CCCCC3c3cccnc3)cc2c1=O (stereo not drawn) [Compound 38] 2.95

So what's the measured log10 IC50 for this one? NC(=O)c1cn(-c2ccc(F)cc2)c2ccc(NCC3CCOCC3)cc2c1=O [Compound 53] 2.82

So what's the measured log10 IC50 for this one? NC(=O)c1cn(-c2ccc(F)cc2)c2ccc(COc3ccc(Cl)nc3)cc2c1=O [Compound 37] 2.31

For each of the compounds below, state log10 IC50.
1. COc1ccc(-n2cc(C(N)=O)c(=O)c3cc(CCc4cnc(C)nc4)ccc32)cc1 [Compound 15]
2. NC(=O)c1cn(-c2ccc(F)cc2)c2ccc(NCCN3CCOCC3)cc2c1=O [Compound 28]
3. Cc1ncc(CCc2cc(F)c3c(c2)c(=O)c(C(N)=O)cn3-c2ccc(F)cc2)cn1 [Compound 49]
4. CN1CCN(Cc2ccc3c(c2)c(=O)c(C(N)=O)cn3-c2ccc(F)cc2)CC1 [Compound 87]
5. COc1ccc(-n2cc(C(N)=O)c(=O)c3cc(CCc4cnc(C)nc4)ccc32)cc1F [Compound 14]
6. NC(=O)c1cn(-c2ccc(F)cc2)c2ccc(COc3ccc(F)nc3)cc2c1=O [Compound 45]

2.14
3.06
2.19
3.13
2.40
2.55

For each of the compounds below, state log10 IC50.
1. NC(=O)c1cn(-c2ccc(F)cc2)c2ccc(CN3CCS(=O)(=O)CC3)cc2c1=O [Compound 84]
2. COC1CCN(Cc2ccc3c(c2)c(=O)c(C(N)=O)cn3-c2ccc(F)cc2)CC1 [Compound 74]
3. NC(=O)c1cn(-c2ccc(F)cc2)c2ccc(NCCc3cccnc3)cc2c1=O [Compound 27]

3.06
3.27
2.59

For each of the compounds below, state log10 IC50.
1. CN(Cc1cccnc1)c1cc(F)c2c(c1)c(=O)c(C(N)=O)cn2-c1ccc(F)cc1 [Compound 51]
2. Cc1ncc(OCc2ccc3c(c2)c(=O)c(C(N)=O)cn3-c2ccc(F)cc2)cn1 [Compound 35]
3. C[C@@H]1CN(Cc2ccc3c(c2)c(=O)c(C(N)=O)cn3-c2ccc(F)cc2)CCO1 [Compound 89]
4. Cc1ccc(Oc2ccc3c(c2)c(=O)c(C(N)=O)cn3-c2ccc(F)cc2)cn1 [Compound 55]
5. NC(=O)c1cn(-c2ccc(F)cc2)c2ccc(CN3CCCSCC3)cc2c1=O [Compound 71]
6. CS(=O)(=O)C1CCN(Cc2ccc3c(c2)c(=O)c(C(N)=O)cn3-c2ccc(F)cc2)CC1 [Compound 76]

1. 3.07
2. 2.46
3. 3.06
4. 3.23
5. 2.21
6. 3.05

For each of the compounds below, state log10 IC50.
1. C[C@H]1CN(Cc2ccc3c(c2)c(=O)c(C(N)=O)cn3-c2ccc(F)cc2)CCO1 [Compound 88]
2. CN(Cc1cccnc1)c1cc2c(=O)c(C(N)=O)cn(-c3ccc(F)cc3)c2cc1F [Compound 52]
3. NC(=O)c1cn(-c2ccc(F)cc2)c2ccc(-c3cccnc3)cc2c1=O [Compound 60]

1. 2.86
2. 2.83
3. 2.44

For each of the compounds below, state log10 IC50.
1. CCN(Cc1cccnc1)c1ccc2c(c1)c(=O)c(C(N)=O)cn2-c1ccc(F)cc1 [Compound 42]
2. NC(=O)c1cn(-c2ccc(F)cc2)c2ccc(Oc3ccc(F)nc3)cc2c1=O [Compound 58]
3. CC(Oc1ccc2c(c1)c(=O)c(C(N)=O)cn2-c1ccc(F)cc1)c1cccnc1 (stereo not drawn) [Compound 30]
4. NC(=O)c1cn(-c2ccc(F)cc2)c2ccc(OCc3cccnc3)cc2c1=O [Compound 44]
5. NC(=O)c1cn(-c2ccc(F)cc2)c2ccc(-c3ccncc3)cc2c1=O [Compound 63]
6. NC(=O)c1cn(-c2ccc(F)cc2)c2ccc(Oc3cncc(F)c3)cc2c1=O [Compound 59]

[2.22, 3.13, 2.59, 3.03, 2.61, 3.32]
